Molecular target: Transient receptor potential cation channel subfamily V member 1 (Rattus norvegicus)
Sequence (O35433 whole entry): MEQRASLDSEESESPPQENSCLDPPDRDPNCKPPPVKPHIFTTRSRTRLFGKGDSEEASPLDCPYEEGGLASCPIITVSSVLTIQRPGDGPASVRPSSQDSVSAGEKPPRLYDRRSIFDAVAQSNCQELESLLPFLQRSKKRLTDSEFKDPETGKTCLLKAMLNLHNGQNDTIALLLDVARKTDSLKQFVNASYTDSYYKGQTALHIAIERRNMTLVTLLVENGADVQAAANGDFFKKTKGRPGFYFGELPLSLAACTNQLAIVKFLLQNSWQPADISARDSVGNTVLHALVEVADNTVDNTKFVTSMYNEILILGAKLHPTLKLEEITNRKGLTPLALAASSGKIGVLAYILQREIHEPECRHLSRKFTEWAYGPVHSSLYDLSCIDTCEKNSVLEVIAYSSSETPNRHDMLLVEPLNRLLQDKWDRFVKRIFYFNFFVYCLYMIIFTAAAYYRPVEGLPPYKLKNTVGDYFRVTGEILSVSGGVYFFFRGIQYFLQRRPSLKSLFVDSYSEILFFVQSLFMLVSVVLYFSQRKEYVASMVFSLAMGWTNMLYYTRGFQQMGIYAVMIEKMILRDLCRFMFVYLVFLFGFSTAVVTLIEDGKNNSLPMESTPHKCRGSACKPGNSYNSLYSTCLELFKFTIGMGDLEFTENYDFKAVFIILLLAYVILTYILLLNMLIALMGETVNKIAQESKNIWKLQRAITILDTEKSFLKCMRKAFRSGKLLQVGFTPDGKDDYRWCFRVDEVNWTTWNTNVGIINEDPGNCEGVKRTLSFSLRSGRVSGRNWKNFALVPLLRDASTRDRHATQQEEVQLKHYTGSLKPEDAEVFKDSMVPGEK
Experiment: Antagonist activity at rat TRPV1 expressed in Xenopus laevis oocytes assessed as blockage of capsaicin-induced current at holding potential -60 mV by two-microelectrode voltage -clamp amplifier
RESULT_TYPE: IC50 (µM)
Give your result in µM as a bare value.

These solved cases illustrate the format of a correct answer.
INSERT INTO assay_data (smiles_repr, result_type, endpoint_value) VALUES
  ('CCCCNc1nc(NCc2ccc(C(=O)O)cc2)nc(NCc2ccc(C(=O)O)cc2)n1', 'IC50', 229),
  ('CN(C)CCCNc1nc(N2CCN(C(c3ccc(F)cc3)c3ccc(F)cc3)CC2)nc(N2CCN(C(c3ccc(F)cc3)c3ccc(F)cc3)CC2)n1', 'IC50', 56.4),
  ('CN(C)CCCNc1nc(NCCC2=CCCCC2)nc(NCCC2=CCCCC2)n1', 'IC50', 218);

Qu. Quick check: IC50 of CN(C)CCCNc1nc(N2CCc3c([nH]c4ccccc34)C2)nc(N2CCc3c([nH]c4ccccc34)C2)n1 ?
Ans. 7

Qu. And NCCN1CCN(c2nc(NCCc3ccc(Cl)cc3)nc(NCCc3ccc(Cl)cc3)n2)CC1 ?
Ans. 0.96

Qu. And CN(C)CCN1CCN(c2nc(NCCc3ccc(F)cc3)nc(NCCc3ccc(F)cc3)n2)CC1 ?
Ans. 18.6

====

Biological target: Transient receptor potential cation channel subfamily V member 1 (Rattus norvegicus) (UniProt O35433)
Sequence (O35433 whole entry): as above
Assay: Antagonist activity at rat TRPV1 expressed in Xenopus laevis oocytes assessed as blockage of capsaicin-induced current at holding potential -60 mV at 10 uM by two-microelectrode voltage -clamp amplifier
Assay type: functional, cell-based
Design: scale not given: the % may be the effect or the level left
Conditions: Oocyte
This listing pairs compounds with measured Activity.
Give your result in % as a bare value.

These solved cases illustrate the format of a correct answer.
INSERT INTO measurements (compound, result_type, endpoint_value) VALUES
  ('N=C(N)NCCCCN(CC(N)=O)C(=O)CC1C(=O)N(CCc2ccc(Cl)cc2)CC(=O)N1CCc1ccc(Cl)cc1 (stereo not drawn)', 'Activity', 55),
  ('CCN(CC)CCCN1CC(=O)N(CCc2ccc(Cl)cc2Cl)C(CC(=O)N(CCc2ccc(Cl)cc2Cl)CC(N)=O)C1=O (stereo not drawn)', 'Activity', 3),
  ('CN(C)CCCNCC(=O)N(CCc1ccc(Cl)cc1)CC(=O)N(CCc1ccc(Cl)cc1)CC(N)=O', 'Activity', 45),
  ('CN(C)CCCNCC(=O)N(CCc1ccc(Cl)cc1Cl)CC(=O)N(CCc1ccc(Cl)cc1Cl)CC(N)=O', 'Activity', 55),
  ('CN1CCCC1CCN(CC(N)=O)C(=O)CC1C(=O)N(CCc2ccc(Cl)cc2Cl)CC(=O)N1CCc1ccc(Cl)cc1Cl (stereo not drawn)', 'Activity', 40),
  ('N=C(N)NCCCCN(CC(N)=O)C(=O)CC1C(=O)N(CCc2ccc(Cl)cc2Cl)CC(=O)N1CCc1ccc(Cl)cc1Cl (stereo not drawn)', 'Activity', 30),
  ('CN1CCCC1CCN1CC(=O)N(CCc2ccc(Cl)cc2Cl)C(CC(=O)N(CCc2ccc(Cl)cc2Cl)CC(N)=O)C1=O (stereo not drawn)', 'Activity', 3);

Let's switch to this compound now.
Qu. Quick check: Activity of CCCCNCC(=O)N(CCc1ccc(Cl)cc1Cl)CC(=O)N(CCc1ccc(Cl)cc1Cl)CC(N)=O ?
Ans. 34
